# Test system: MS2 coat protein
# assay-text: apparent Kd, MS2 coat protein; higher = weaker binding; RNA-MaP array; tryptophan 2.4 mM where present
# experimental-setup: ligand present: tryptophan; designed as: OFF switch for tryptophan
Short version: apparent Kd at least 0.2 µM is rule met, less is rule not met.

Exam item: decide whether the reported apparent Kd for "CCUAUGCAGUCGGCCGCCACUGAGUCCUCAAUAAUAAAUUAAUAAACAUGAGGAUCACCCAUGUACAGGACCGGGACUGUAUAGG" is at least 0.2 µM.
rule met

Exam item: decide whether the reported apparent Kd for "GUGUUAUGGUCGGCCGCCACUCUGACAUGAGGAUCACCCAUGUUGUACAUGAGGAUCACCCAUGUGAGGACCGGGACACGUGCGA" is at least 0.2 µM.
rule met

Exam item: decide whether the reported apparent Kd for "GUUUUGGGAUCGGCCGCCACUACAUGAGGAUCACCCAUGUGGACAAAUAGGGUUUUUAAGCUCGGUAGGACCGGGAUUCGAACAU" is at least 0.2 µM.
rule not met

Exam item: decide whether the reported apparent Kd for "ACCUGCGUUUGUUUCUUUCUGACGCAGGUUCGAGGACCGGUACGGCCGCCACUCGGACAUGAGGAUCACCCAUGUUUGAAAUGGG" is at least 0.2 µM.
rule met

Exam item: decide whether the reported apparent Kd for "GGAUCAGGAUCGGCCGCCACUGAUAGUGAUCCAACGACAUGAGGAUCACCCAUGUACAUUUUAAUCAGGACCGGGAUCAAGUUCC" is at least 0.2 µM.
rule met

Exam item: decide whether the reported apparent Kd for "AAUGUAUGGCACAUGAGGAUCACCCAUGUGCGAGGACCGGUACGGCCGCCACUCGGUCGUGGGUUCUUAUUACUAUACAUUAAUG" is at least 0.2 µM.
rule not met

Exam item: decide whether the reported apparent Kd for "GAGUAGUAGACGGCCGCCACUAAACAUGAGGAUCACCCAUGUAGUGAUCCGUUACCUAGCGUAGAUAGGACCGGGUCAGAUAGUA" is at least 0.2 µM.
rule not met

###

# Tested on: MS2 coat protein
# assay-text: apparent Kd, MS2 coat protein; higher = weaker binding; RNA-MaP array
# experimental-setup: ligand present: flavin mononucleotide; designed as: OFF switch for flavin mononucleotide
Grouping rule (apparent Kd): range A = under 20 nM, range B = from 20 nM up to 40 nM, range C = 40 nM and over

Which bin, given its apparent Kd, does "AUUCGAACGGUCAGGAUAUGCGGAAAGACAUCGCAGCAGAAGGGACAUGAGGAUCACCCAUGUAAAGGGCACAA" occupy?
range C

Which bin, given its apparent Kd, does "GCCAUAAAAGAGAAGGGCGGCCACCUACGAACCGCAGGAUAUCUUUGCUUUCCUCGGACAUGAGGAUCACCCAUGUGGCCAAUA" occupy?
range C

Which bin, given its apparent Kd, does "GAUCAUUUAGUGAGGAUAUGUCUCCUGCAAAGUCGACAGAAGGCACAUGAGGAUCACCCAUGUUCGCUUCGGAU" occupy?
range A

Which bin, given its apparent Kd, does "GUCAUGUCAGGAUAUCGUUCGGAGUGCGAUUCCCUCUGCCGCGAGAAGGGACAUGAGGAUCACCCAUGUUCGAA" occupy?
range C

Which bin, given its apparent Kd, does "AUACAGCUAGGAUAUCCGAUAGUAUACAUGAGGAUCACCCAUGUCCUGACGGCCGACCAUGGAGAAGGAGCAGAUA" occupy?
range B

Which bin, given its apparent Kd, does "AAGGAAUAUGAGGAUAUUGAUGCGAAACCUACUCAAGAAGGCAUAACAUGAGGAUCACCCAUGUGACCCUUAUA" occupy?
range B

Which bin, given its apparent Kd, does "CUAAUGGAAGGAUAUACAUGAGGAUCACCCAUGUUUAAGUGAUUAGCGAAUUGUCAACGUAGAAGGUCCAAUUA" occupy?
range C

Which bin, given its apparent Kd, does "GAAAUCAGAGGAUAUCAGUCAUGUCACAUGAGGAUCACCCAUGUUUGUGUUUUGGUAGAUUGAGAAGGCUGCGACC" occupy?
range A

Which bin, given its apparent Kd, does "GUAUGCCACAGGGACAUGAGGAUCACCCAUGUAAAUACGGAUAGAAGGCGACGAGCGUAGCUCUUCGAGGAUAUAUGCUUUUUG" occupy?
range B

Which bin, given its apparent Kd, does "UACCCUCGAGGAUAUUAGCUAGCGAACAUGAGGAUCACCCAUGUGCAUCUUCCCAGCCGUUAAGAAGGCGAUUACC" occupy?
range C

Which bin, given its apparent Kd, does "UUCCUCAGCAGGGUAACAUGAGGAUCACCCAUGUCGGAGAGCGAGGAUAUCUCGUGAAGCUCAUAAGAGAAGGCGCACAACUAG" occupy?
range A

Which bin, given its apparent Kd, does "GCUUUAUUCUAGAAGGCUUAUCAUGCAUAAUGUCUAGAAGUUCAGACAUGAGGAUCACCCAUGUAAGAGGAUAUAGCGUAAAGU" occupy?
range B

Which bin, given its apparent Kd, does "ACACAUAAUCUCGGACAUGAGGAUCACCCAUGUGUCACAAUCAGAAGGCACACUUGACAAGGGAGUGAGGAUAUGAAUACAUUA" occupy?
range B

Which bin, given its apparent Kd, does "GCUUUGCUGUGGUCCCUGAUACAUGAGGAUCACCCAUGUGAGAAGGAUAUUCAGAAUGGUCUCCCGAAGAAGGUCUGCACCUGG" occupy?
range A

The origin of these recorded values is the EternaBench riboswitch data.
